Measured values drawn from patent US20050142531A1 for this set.

assay: Conductivities and solubilities of selected multipeptides at their pI; format: physicochemical; conditions: Table 1
Peptide text beside a SMILES is read from it.
Yes means recorded pI is 6 or above; No means it is below 6.

Here's what some known entries look like.
{"columns": ["COMPOUND", "CATEGORY_LABEL"],
 "data": [
  ["N[C@@H](Cc1c[nH]cn1)C(=O)NCC(=O)O [His-Gly] (H-His-Gly-OH; N-terminus and C-terminus assumed)", "Yes"],
  ["C[C@H](NC(=O)[C@@H](N)Cc1c[nH]cn1)C(=O)O [His-Ala] (H-His-Ala-OH; N-terminus and C-terminus assumed)", "Yes"],
  ["N[C@@H](Cc1c[nH]cn1)C(=O)N[C@@H](CC(=O)O)C(=O)O [His-Asp] (H-His-Asp-OH; N-terminus and C-terminus assumed)", "No"]
]}

stdin: Does pI meet or surpass 6 for N[C@@H](Cc1c[nH]cn1)C(=O)N[C@@H](CCC(=O)O)C(=O)O [His-Glu] (H-His-Glu-OH; N-terminus and C-terminus assumed) ?
stdout: No

stdin: Test whether the compound NCC(=O)N[C@@H](Cc1c[nH]cn1)C(=O)O [Gly-His] (H-Gly-His-OH; N-terminus and C-terminus assumed) records pI of 6 or higher.
stdout: Yes

stdin: pI >= 6 for CC(C)[C@H](N)C(=O)N[C@@H](Cc1c[nH]cn1)C(=O)O [Val-His] (H-Val-His-OH; N-terminus and C-terminus assumed) ?
stdout: Yes

----------
assay: pKa, pI and % salt of peptidic buffers; format: physicochemical; settings: Table 2, second acidic pKa
Peptide text beside a SMILES is read from it.
OBSERVED_PROPERTY: pka A (acidic pKa)

Example results:
{"columns": ["MOLECULE", "OBSERVED_PROPERTY", "ENDPOINT_RESULT"],
 "data": [
  ["N[C@@H](Cc1c[nH]cn1)C(=O)N[C@@H](Cc1ccc(O)cc1)C(=O)O [His-Tyr] (H-His-Tyr-OH; N-terminus and C-terminus assumed)", "pka A (acidic pKa)", 9.97],
  ["N[C@@H](CC(=O)O)C(=O)N[C@@H](CC(=O)O)C(=O)O [Asp-Asp] (H-Asp-Asp-OH; N-terminus and C-terminus assumed)", "pka A (acidic pKa)", 3.40]
]}

Please fill in: pka A (acidic pKa) reported for N[C@@H](Cc1c[nH]cn1)C(=O)N[C@@H](CC(=O)O)C(=O)O [His-Asp] (H-His-Asp-OH; N-terminus and C-terminus assumed) = 3.99

----------
experiment: pKa, pI and % salt of peptidic buffers; assay type: physicochemical; settings: Table 2, first basic pKa
Peptide text beside a SMILES is read from it.
OBSERVED_PROPERTY: pka B (basic pKa)
Give the value as a plain number.

# annotated cases, reported pka B (basic pKa) shown
{"columns": ["MOLECULE", "ENDPOINT_RESULT"],
 "data": [
  ["NC(=O)C[C@H](NC(=O)[C@@H](N)Cc1c[nH]cn1)C(=O)O [His-Asn] (H-His-Asn-OH; N-terminus and C-terminus assumed)", 6.10],
  ["N[C@@H](CCC(=O)O)C(=O)N[C@@H](Cc1c[nH]cn1)C(=O)O [Glu-His] (H-Glu-His-OH; N-terminus and C-terminus assumed)", 6.81],
  ["N=C(N)NCCC[C@H](NC(=O)[C@@H](N)Cc1ccc(O)cc1)C(=O)O", 7.39],
  ["NCC(O)CC[C@H](NC(=O)[C@@H](N)Cc1c[nH]cn1)C(=O)O (stereo partly drawn) [His-Hydroxylysine]", 6.10],
  ["N[C@@H](Cc1c[nH]cn1)C(=O)N[C@@H](CCC(=O)O)C(=O)O [His-Glu] (H-His-Glu-OH; N-terminus and C-terminus assumed)", 6.32]
]}

For reference, reported pka B (basic pKa) for CC[C@H](C)[C@H](NC(=O)[C@@H](N)Cc1c[nH]cn1)C(=O)O [His-Isoleucine] (H-His-Ile-OH; N-terminus and C-terminus assumed) stands at 6.10

----------
assay: pKa, pI and % salt of peptidic buffers; format: physicochemical; conditions: Table 2, first acidic pKa
Peptide text beside a SMILES is read from it.
Collected pka A (acidic pKa) values appear next to each entry.
Please give only the number in your answer, with no unit.

Worked set:
{"columns": ["COMPOUND", "ENDPOINT_RESULT"],
 "data": [
  ["N[C@@H](Cc1c[nH]cn1)C(=O)N[C@@H](CO)C(=O)O [His-Ser] (H-His-Ser-OH; N-terminus and C-terminus assumed)", 2.65],
  ["CSCC[C@H](NC(=O)[C@@H](N)Cc1c[nH]cn1)C(=O)O [His-Met] (H-His-Met-OH; N-terminus and C-terminus assumed)", 2.89]
]}

Entry O=C(O)[C@H](Cc1c[nH]cn1)NC(=O)[C@@H]1CC(O)CN1 (stereo partly shown) [Hydroxyproline-His] ; pka A (acidic pKa) = 2.42

The measured pka A (acidic pKa) associated with N[C@@H](CC(=O)O)C(=O)N[C@@H](CC(=O)O)C(=O)O [Asp-Asp] (H-Asp-Asp-OH; N-terminus and C-terminus assumed) reads 2.70

The reported value for N=C(N)NCCC[C@H](N)C(=O)N[C@@H](CC(=O)O)C(=O)O [Arg-Asp] (H-Arg-Asp-OH; N-terminus and C-terminus assumed) in terms of pka A (acidic pKa) is 2.64

pka A (acidic pKa) recorded for this compound, N[C@@H](Cc1c[nH]cn1)C(=O)N[C@@H](Cc1ccc(O)cc1)C(=O)O [His-Tyr] (H-His-Tyr-OH; N-terminus and C-terminus assumed) , is 2.13

----------
experiment: pKa, pI and % salt of peptidic buffers; type: physicochemical; settings: Table 2, first basic pKa
Square brackets hold non-standard residues; d marks the D form. Peptide text beside a SMILES is read from it. Cit = NC(=O)NCCC[C@H](N)C(=O)O
Below, each of the molecules is paired with its reported pka B (basic pKa) value.
# print the numeric value only

// solved cases for pka B (basic pKa) follow
{"columns": ["MOLECULE", "OBSERVED_PROPERTY", "ENDPOINT_RESULT"],
 "data": [
  ["N[C@@H](Cc1c[nH]cn1)C(=O)N1CCC[C@H]1C(=O)O [His-Pro]", "pka B (basic pKa)", 6.10],
  ["NCCC[C@H](N)C(=O)N[C@@H](Cc1c[nH]cn1)C(=O)O [Ornithine-His]", "pka B (basic pKa)", 6.71],
  ["CSCC[C@H](N)C(=O)N[C@@H](Cc1c[nH]cn1)C(=O)O [Met-His] (H-Met-His-OH; N-terminus and C-terminus assumed)", "pka B (basic pKa)", 6.71],
  ["NC(=O)CC[C@H](NC(=O)[C@@H](N)Cc1c[nH]cn1)C(=O)O [His-Gln] (H-His-Gln-OH; N-terminus and C-terminus assumed)", "pka B (basic pKa)", 6.10],
  ["NC(=O)C[C@H](N)C(=O)N[C@@H](Cc1c[nH]cn1)C(=O)O [Asn-His] (H-Asn-His-OH; N-terminus and C-terminus assumed)", "pka B (basic pKa)", 6.71],
  ["NCCC(=O)N[C@@H](Cc1cnc[nH]1)C(=O)O [Carnosine]", "pka B (basic pKa)", 6.83],
  ["NC(=O)NCCC[C@H](N)C(=O)N[C@@H](Cc1c[nH]cn1)C(=O)O [Citrulline-His] (H-[Cit]-His-OH; N-terminus and C-terminus assumed)", "pka B (basic pKa)", 6.71],
  ["N[C@@H](CC(=O)O)C(=O)N[C@@H](Cc1c[nH]cn1)C(=O)O [Asp-His] (H-Asp-His-OH; N-terminus and C-terminus assumed)", "pka B (basic pKa)", 6.81]
]}

Just so you know, measured pka B (basic pKa) for NC(=O)CC[C@H](N)C(=O)N[C@@H](Cc1c[nH]cn1)C(=O)O [GIn-His] (H-Gln-His-OH; N-terminus and C-terminus assumed) came out at 6.71

So for CC(C)C[C@H](N)C(=O)N[C@@H](Cc1c[nH]cn1)C(=O)O [Leu-His] (H-Leu-His-OH; N-terminus and C-terminus assumed) , the logged pka B (basic pKa) turned out to be 6.71

----------
experiment: pKa, pI and % salt of peptidic buffers; type: physicochemical; details: Table 2, first basic pKa
Peptide text beside a SMILES is read from it.
Entries annotated with measured pka B (basic pKa)
Give a plain numeric answer without units written out.

{"columns": ["MOLECULE", "pka B (basic pKa)"],
 "data": [
  ["C[C@@H](O)[C@H](N)C(=O)N[C@@H](Cc1c[nH]cn1)C(=O)O [Thr-His] (H-Thr-His-OH; N-terminus and C-terminus assumed)", 6.71],
  ["CC(C)[C@H](NC(=O)[C@@H](N)Cc1c[nH]cn1)C(=O)O [His-Val] (H-His-Val-OH; N-terminus and C-terminus assumed)", 6.10],
  ["NCCC(=O)N[C@@H](Cc1cnc[nH]1)C(=O)O [Beta-Alanylhistidine]", 6.70],
  ["N[C@@H](Cc1c[nH]cn1)C(=O)N[C@@H](Cc1ccccc1)C(=O)O [His-Phe] (H-His-Phe-OH; N-terminus and C-terminus assumed)", 6.10],
  ["N=C(N)NCCC[C@H](NC(=O)[C@@H](N)CCC(=O)O)C(=O)O [Glu-Arg] (H-Glu-Arg-OH; N-terminus and C-terminus assumed)", 7.94]
]}

# ---- query molecule ----
Reported pka B (basic pKa) for CSCC[C@H](NC(=O)[C@@H](N)Cc1c[nH]cn1)C(=O)O [His-Met] (H-His-Met-OH; N-terminus and C-terminus assumed) was 6.10
